# experimental.details: Multiple ascending dose study NP10679-102, plasma pharmacokinetics
# Assay type: in vivo
# assay.setup: human, iv, 100 mg, AUC 0–24, MAD, 100 mg IV once daily, day 2
measurement.type: AUC(0-t)
Kindly report the value followed by its unit.

Query block: // lookup AUC(0-t) for "O=C1CCc2cc(OC[C@H](O)CN3CCN(c4ccc(C(F)(F)F)cc4)CC3)ccc2N1"
Result block: 7.32 µg·h/mL

###

# experimental.details: Plasma protein binding
# Format: in vitro ADME, mice, rats, dogs, and humans
# assay.setup: mouse, rat, dog, human
measurement.type: fraction unbound

Query block: I would be grateful if you could share the reported fraction unbound for "O=C1CCc2cc(OC[C@H](O)CN3CCN(c4ccc(C(F)(F)F)cc4)CC3)ccc2N1" .
Result block: 0.01 to 0.026

###

# experimental.details: Single ascending dose study NP10679-101, plasma pharmacokinetics
# Assay type: in vivo, human
# assay.setup: human, plasma, iv, 100 mg
measurement.type: AUC(0-inf) (ng·h/mL)
Express the result in ng·h/mL but write the number alone.

Query block: Looking for the measured AUC(0-inf) of "O=C1CCc2cc(OC[C@H](O)CN3CCN(c4ccc(C(F)(F)F)cc4)CC3)ccc2N1" , can you help?
Result block: 9860

###

# experimental.details: Multiple ascending dose study NP10679-102, plasma pharmacokinetics
# Assay type: in vivo
# assay.setup: human, iv, 50 mg, AUC 0–24, MAD, 50 mg IV once daily, day 2
measurement.type: AUC(0-t) (ng·h/mL)
Use ng·h/mL as the unit, but write only the number.

Query block: Any idea what AUC(0-t) was measured for "O=C1CCc2cc(OC[C@H](O)CN3CCN(c4ccc(C(F)(F)F)cc4)CC3)ccc2N1" ?
Result block: 3300

###

# experimental.details: Single ascending dose study NP10679-101, plasma pharmacokinetics
# Assay type: in vivo, human
# assay.setup: human, plasma, iv, 5 mg
measurement.type: clearance (mL/min)
Kindly answer with a numeric value in mL/min, unit omitted.

Query block: // returns reported clearance for input "O=C1CCc2cc(OC[C@H](O)CN3CCN(c4ccc(C(F)(F)F)cc4)CC3)ccc2N1"
Result block: 163

###

# experimental.details: Multiple ascending dose study NP10679-102, plasma pharmacokinetics
# Type: in vivo
# assay.setup: human, iv, 50 mg, Cmax, MAD, 50 mg IV once daily, day 1
measurement.type: Cmax (ng/mL)
Please give a number only; it is taken to be in ng/mL.

Query block: Data request, read-out Cmax, for "O=C1CCc2cc(OC[C@H](O)CN3CCN(c4ccc(C(F)(F)F)cc4)CC3)ccc2N1"
Result block: 376
